These entries and their values trace back to patent US5936097A.

Exercise: for every item that follows, state its recorded log10 IC50.
TARGET OR SYSTEM: human farnesyl transferase (Homo sapiens, UniProt P49354+P49356)
Construct: human farnesyl transferase purified from THP1 cell cultures; endogenous in cells; host or cells: THP1 cell cultures (enzyme purified from the cells)
METHOD DESCRIPTION: inhibition of farnesyl transferase ((3H) farnesyl transfer from (3H) FPP to p21 H-ras)
Format: biochemical
DETAILS: human farnesyl transferase purified from THP1 cell cultures; p21 H-ras substrate; 20 minutes at 37° C.; 9 concentrations; read-out: in vitro inhibitory activity IC50
Friendly reminder: values = log10 of IC50, unit nM.

Query :: Provide one value: measured log10 IC50 of CCCOc1ccccc1CC(=O)N1C[C@H]2[C@@]3(c4ccccc4)CC[C@H](c4ccccc43)[C@@]2(C(=O)O)C1 (relative stereo) [Example 80]
Result :: 2.90

Query :: Let me know recorded log10 IC50 for COc1ccccc1CC(=O)N1CC2C3(c4ccccc4)CCC(c4ccccc43)C2(C(=O)N[C@@H](CCSC)C(=O)O)C1 (stereo partly drawn) [Example 51] , thanks.
Result :: 2.18

Query :: Look up and report measured log10 IC50 for this entry: COc1ccc(CSSCc2ccc(OC)c(CC(=O)N3CC4C5(c6ccccc6)CCC(c6ccccc65)C4(C(=O)O)C3)c2)cc1CC(=O)N1CC2C3(c4ccccc4)CCC(c4ccccc43)C2(C(=O)O)C1 (racemic) [Example 37]
Result :: 3.87

Query :: In one line, give reported log10 IC50 of the entry COc1ccccc1CC(=O)N1C[C@H]2[C@@]3(c4ccccc4)CC[C@H](c4ccccc43)[C@@]2(C(=O)NC(CC(=O)O)C(=O)O)C1 (stereo partly drawn) [Example 6] .
Result :: 3.04

Query :: For the compound COc1ccccc1C(C(=O)N1C[C@@H]2[C@]3(c4ccccc4)CC[C@@H](c4ccccc43)[C@]2(C(=O)O)C1)=C(C)C (racemic) [Example 79] , give its measured log10 IC50 value.
Result :: 3.70

Query :: Input C=C(C(=O)N1C[C@H]2[C@@]3(c4ccccc4)CC[C@H](c4ccccc43)[C@@]2(C(=O)NCc2ccccn2)C1)c1ccccc1OC [Example 93] , output reported log10 IC50.
Result :: 2.65
